Measured pIC50 (HER-2 (Homo sapiens, UniProt P04626))
pIC50: −log10 of the molar value.

q: # query: pIC50 of entry N#Cc1cnc2sc(C(=O)Nc3ccc(CCN4CCCCC4)cc3)c3c2c1N(c1ccc(Oc2ccccc2)cc1)C(=O)N3
a: < 5.00

q: Repeat for the following compound: N#Cc1cnc2sc(C(=O)Nc3ncccn3)c3c2c1N(c1c(Cl)ccc2c1OCO2)C(=O)N3
a: < 6.00

q: Repeat for the following compound: CCOC(=O)c1sc2nc(O)c(C#N)c3c2c1NC(=O)N3c1ccncc1
a: < 4.00

q: Repeat for the following compound: CCOC(=O)c1sc2nc(O)c(C#N)c3c2c1NC(=O)N3c1ccc(Oc2ccccc2)cc1
a: < 5.00

q: Repeat for the following compound: Cc1cc(NC(=O)c2sc3ncc(C#N)c4c3c2NC(=O)N4c2c(Cl)ccc3c2OCO3)no1
a: < 6.00

q: Repeat for the following compound: COc1cc(N2C(=O)Nc3c(C(=O)Nc4ccc(CCN5CCOCC5)cc4)sc4ncc(C#N)c2c34)c(Cl)cc1Cl
a: ~4.00

q: Repeat for the following compound: CN(C)C1CCN(Cc2ccc(NC(=O)c3sc4ncc(C#N)c5c4c3NC(=O)N5c3c(Cl)ccc4c3OCO4)cc2)CC1
a: < 6.00
